- test-summary: NCI Yeast Anticancer Drug Screen. Data for the rad50 strain (AID 155);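 also: 0% = growth of vehicle-only cultures of the same strain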
- assay-conditions: S. cerevisiae rad50 strain growth inhibition, hits give high values; at 50.0 µM unless noted
About 79,000 compounds went through this panel and 15% of them were active in at least one assay; those are over-represented in the sample as a whole.
parameter-measured: growth inhibition (%)
One number for each entry, in %.

CCS(=O)(=O)/C=C/c1cccs1 | -9.1
O=C(Nc1ccc2c(c1)Cc1c(F)cccc1-2)C(F)(F)F | -4.8
O=C(OCC(OC(=O)c1ccccc1)C1OCOC2COCOC21)c1ccccc1 (stereo not given) | 3.35

Consider the following items and state reported growth inhibition for each.
1. CN(CCO)CCCC1COc2ccccc2O1 (stereo not given)
2. COC(=O)CCC(NC(=S)N/N=C(\C)c1ccco1)C(=O)OC (stereo not given)
3. NC(=O)CSCC(N)=O
4. O=[N+]([O-])c1ccc(N/N=C2/CC3CCC2C3)c([N+](=O)[O-])c1 (stereo not given)
5. CCOC(=O)c1ccc(NC(=O)Nc2cc(Cl)ccc2C)cc1
6. CN(/C(=C/C(=O)c1ccccc1)C(=O)c1ccccc1)/C(=C/C(=O)c1ccccc1)C(=O)c1ccccc1
7. O=C1CN(CCN2CC(=O)N(CN3CCOCC3)C(=O)C2)CC(=O)N1CN1CCOCC1
8. CCc1ccc2nccc(NCCCN(C)C)c2c1[N+](=O)[O-]

## Result
-31.6
-18.1
0.75
-4.3
38.9
-27.4
9.55
3.55

Consider the following items and state reported growth inhibition for each.
1. O=C1CSC(c2c[nH]c3ccccc23)N1c1ccc(Cl)cc1 (stereo not given)
2. Cc1cc2nc3c4ccccc4scc-3c2cc1C
3. Cc1ccc2[nH]c3c(c2c1)C(=O)CCC3
4. O=C(Cc1csc(-c2nc(CC(=O)NNc3ccccc3)cs2)n1)NNc1ccccc1
5. O=C(OC1C2C=COC(OC3OC(CO)C(O)C(O)C3O)C2C2(CO)OC12)c1ccc(O)cc1 (stereo not given)
6. CCOC(=O)CSCC(=O)OCC
7. CCCCCCCCCC(=O)Oc1cccc2c1CC(C[Se]c1ccccc1)C(=O)O2 (stereo not given)
8. O=C(CSc1n[nH]c(=S)c2nc[nH]c12)c1ccc(Br)cc1

## Result
1. -33.9
2. 99
3. -7.6
4. 12.7
5. -0.15
6. 3.6
7. 2.1
8. 11.7

Consider the following items and state reported growth inhibition for each.
1. CN(C)CC(C(=O)/C=C/c1ccccc1)C(C)(C)C (stereo not given)
2. O=c1oc(=O)c2cc3c(=O)oc(=O)c3cc12
3. CC1=CSC2=NCCCCN12
4. O=C1C(Br)=C[C@H]2C3C=CC(Br)(C3=O)[C@@H]12 (stereo not given in full)

## Result
1. -10.4
2. -21.4
3. -9.5
4. 20.8

Consider the following items and state reported growth inhibition for each.
1. O=C(O)COc1ccc(F)cc1F
2. CC1CC(C)(O)C2C3(C)CCCC2(COC3=O)C12CCC1(CCOC1=O)O2 (stereo not given)

## Result
[-22.5, 0.9]

====

- test-summary: NCI Yeast Anticancer Drug Screen. Data for the mec2-1 strain (AID 157)
- assay-conditions: S. cerevisiae mec2-1 strain, hits give high values; at 50.0 µM unless noted
About 79,000 compounds went through this panel and 15% of them were active in at least one assay; those are over-represented in the sample as a whole.
Provide the reported growth inhibition of each item.
Answers are plain numbers, in %.

Some solved cases for reference:
Cc1ccc(C)n1-c1ccccc1 | -37.5
CCC1(CC)C(=O)NN(C(=O)c2ccc(Cl)cc2)C1=O | -22.9
CC(C)OC(=O)c1ccc(CCC2=CC(=O)C(Br)=CC2=O)cc1 | 62.4
NC(C(=O)O)c1ccc(CBr)cc1 (stereo not drawn) | -12.3

Consider the following items and state reported growth inhibition for each.
1. COc1ccc2c(c1)OC[C@@H]1c3cc(NC(=O)c4ccccc4)c(OCc4ccccc4)cc3N(S(=O)(=O)c3ccccc3)[C@H]21
2. CS(=O)(=O)OCC1OC(n2ncc(=O)[nH]c2=O)C(O)C1O (stereo not drawn)
3. CC(Sc1nc(N)nc2nc[nH]c12)C(=O)O (stereo not drawn)
4. CSc1cccc(NC(=S)NC(=O)c2ccccc2)c1

## Result
[-13.9, 13.7, -3.55, -8.15]
